System: P12-Ichikawa
PROTOCOL DETAILS: cell viability relative to DMSO control; higher = less cytotoxic
TEST PARAMETERS: RPMI 5 mM glucose + 10% dialyzed FBS; 48 h; 0.000781 µM
Recorded measurements of cell viability, one per entry

- COMPOUND: "CC\\1=C(C(=O)N(\\C=C1)C2=CC=C(C=C2)C3=NC=CO3)/C4=CC5=CN=C(N)N=C5C=C4"
  cell viability / %: 102
- COMPOUND: "NC(=O)c1ncn([C@@H]2O[C@H](CO)[C@@H](O)[C@H]2O)n1"
  cell viability / %: 115
- COMPOUND: "CC(=O)C\\1=C(/C)C2=CN=C(NC3=CC=C(C=N3)N4CCNCC4)N=C2N(C5CCCC5)C1=O"
  cell viability / %: 122
- COMPOUND: "CC(=O)NC(CS)C(=O)O (centres undefined)"
  cell viability / %: 80.4
- COMPOUND: "Cc1nccn1CC1CCc2c(c3ccccc3n2C)C1=O (centres undefined)"
  cell viability / %: 115
- COMPOUND: "CN(C/C=C/C#CC(C)(C)C)Cc1cccc2ccccc12"
  cell viability / %: 92.3
- COMPOUND: "COc1cc(O)c2c(c1)C1OC1C[C@H](O)[C@H](O)C(=O)/C=C\\C[C@H](C)OC2=O (some centres undefined)"
  cell viability / %: 96.5
- COMPOUND: "CN(C)CCc1c[nH]c2ccc(C[C@H]3COC(=O)N3)cc12"
  cell viability / %: 108
- COMPOUND: "CC1(C)OC2CC3C4CC(F)C/5=C/C(=O)/C=C\\C5(C)C4C(O)CC3(C)[C@@]2(O1)C(=O)CO (some centres undefined)"
  cell viability / %: 115
- COMPOUND: "C[C@@]12O[C@@H](C[C@]1(O)CO)n1c3ccccc3c3c4c(c5c6ccccc6n2c5c31)CNC4=O"
  cell viability / %: 115
- COMPOUND: "N[S+](=O)([O-])c1cc(Cl)c(Cl)c([S+](N)(=O)[O-])c1"
  cell viability / %: 97.5
- COMPOUND: "CCc1c(C(=O)C(N)=O)c2c(OCC(=O)O)cccc2n1Cc1ccccc1"
  cell viability / %: 99.4
- COMPOUND: "O=C(/C=C/c1c(C(=O)[O-])[nH]c2cc(Cl)cc(Cl)c12)Nc1ccccc1"
  cell viability / %: 103
- COMPOUND: "NC(CO)(CO)CCc1ccc(Sc2cccc(OCc3ccccc3)c2)cc1Cl"
  cell viability / %: 101
- COMPOUND: "OC[C@H](Cc1ccccc1)Nc1nc(Oc2ccc3c(c2)CCC3)nc2c1ncn2Cc1ccc(-c2ccccc2)cc1"
  cell viability / %: 79.6
- COMPOUND: "OC(=O)\\C1=C\\N(C2=CC=C(F)C=C2)C3=C(C=C(F)C(=C3)N4CCNCC4)C1=O"
  cell viability / %: 119
- COMPOUND: "CC(=O)OCC(=O)[C@@]12\\N=C(C)/O[C@@H]1C[C@H]3[C@@H]4CCC/5=C/C(=O)/C=C\\[C@]5(C)[C@H]4[C@@H](O)C[C@]23C"
  cell viability / %: 93.6
- COMPOUND: "O=C1\\C=C/C[C@@H]2[C@H]3CCCN4CCC[C@@H](CN12)[C@@H]34"
  cell viability / %: 102
- COMPOUND: "Oc1ccc(C2CCN(c3ccnc4ccccc34)CC2)cc1O"
  cell viability / %: 96.5
